target: Acetylcholinesterase (Homo sapiens)
test: Acetylcholinesterase (AChE) small molecule antagonists: enzyme-based qHTS assay with human liver microsomes (AID 1347399); note: nearly all actives have a fitted effect of over 60% in size
condition notes: qHTS inhibition; series mostly up to 115 µM
Activity calls are given as the source filed them. Calls come from the whole dose curve.
Outcome codes: active, inactive

> print(dat)
                                    compound  class.assignment
 1                                 NC(=O)CCl          inactive
 2  CCOP(=S)(OCC)OC(Cl)C(Cl)(Cl)Cl (centres undefined)            active
 3  O=C(NC(=O)c1c(F)cccc1F)Nc1cc(Cl)c(OC(F)(F)C(F)F)c(Cl)c1          inactive
 4                Nc1ccc(Cl)cc1C(=O)c1ccccc1          inactive
 5  Cc1cc(SCc2sc(-c3ccc(C(F)(F)F)c(F)c3)nc2C)ccc1OCC(=O)O          inactive
 6  CC(C)(O)c1cnn2c(-c3ccc(F)c(-c4c(F)cccc4C#N)c3)cnc2n1          inactive
 7  CCOC(=O)OC1=C(c2cc(C)ccc2C)C(=O)NC12CCC(OC)CC2 (centres undefined)          inactive
 8                                    N#CCCO          inactive
 9                           NNC(=O)c1ccccc1          inactive
10      O=[N+]([O-])c1ccc2ccc3cccc4ccc1c2c34          inactive
11         Oc1ccc(C(=C(Cl)Cl)c2ccc(O)cc2)cc1          inactive
12  CC(C)(C)C(O)C(Oc1ccc(-c2ccccc2)cc1)n1cncn1 (centres undefined)          inactive
13  ClC1=C(Cl)[C@]2(Cl)[C@@H]3[C@@H]4C[C@@H]([C@H]5O[C@@H]45)[C@@H]3[C@@]1(Cl)C2(Cl)Cl          inactive
14                              COP(N)(=S)OC          inactive
15  CC(C)OC(=O)C(O)(c1ccc(Cl)cc1)c1ccc(Cl)cc1          inactive
16                         CCOC(=O)CC(=O)CCl          inactive
17   O=c1oc2ccccc2c(O)c1Cc1c(O)c2ccccc2oc1=O          inactive
18  N#Cc1c(-c2ccc(Cl)cc2)[nH]c(C(F)(F)F)c1Br          inactive
19  C=CC(=O)OCC(COC(=O)C=C)(COC(=O)C=C)COC(=O)C=C          inactive
20  Clc1ccc(COC(Cn2ccnc2)c2ccc(Cl)cc2Cl)cc1 (centres undefined)          inactive
21  CC(=[OH+])/C=C(/C)[O-].CC(=[OH+])/C=C(\C)[O-].CC(=[OH+])/C=C(\C)[O-].[Al]          inactive
22  O=C(Nc1ccc2[nH]ccc2c1)c1cc2cc(F)ccc2n1Cc1cccc(F)c1          inactive
23        Fc1ccc(Oc2ccnc3cc(Cl)cc(Cl)c23)cc1          inactive
24               Clc1ccc(C(Cl)(Cl)Cl)c(Cl)c1          inactive

* * *

test: qHTS assay to identify small molecule antagonists of the sonic hedgehog signaling (Shh) pathway (AID 1259369); note: nearly all actives have a fitted effect of over 45% in size
condition notes: NIH/3T3 Gli1-Luc reporter, Shh antagonist, luminescence 24 h; series mostly up to 92.4 µM
Results filed as inconclusive are left out. The source made the active and inactive calls. Calls come from the whole dose curve.
Labels: yes (1) = active, no (0) = inactive

> print(dat)
                                    molecule  class.assignment
 1   Cc1cc(C(C)(C)c2cc(C)c(O)c(C)c2)cc(C)c1O            no (0)
 2                         CC(=O)C(Cl)(Cl)Cl           yes (1)
 3                         O=C(CCl)Nc1ccccc1            no (0)
 4     CCCOCC(=Nc1ccc(Cl)cc1C(F)(F)F)n1ccnc1           yes (1)
 5                CN(C)CCc1c[nH]c2ccc(O)cc12           yes (1)
 6  CCCN(CCC)c1c([N+](=O)[O-])cc(S(N)(=O)=O)cc1[N+](=O)[O-]           yes (1)
 7  c1ccc2c(c1)OCC(C1=NCCN1)O2 (stereo unspecified)           yes (1)
 8             Nc1ccc(Cc2ccc(N)c(Cl)c2)cc1Cl           yes (1)
 9  CCCCCCCCCCCCCC[P+](CCCCCC)(CCCCCC)CCCCCC (tested in a mixture with another compound)           yes (1)
10  O=c1[nH]c2ccccc2n1CCCN1CCC(n2c(=O)[nH]c3cc(Cl)ccc32)CC1           yes (1)
11  CNC(C)Cc1ccc2c(c1)OCO2 (stereo unspecified)           yes (1)
12                        Cc1ccc(C(=O)Cl)cc1            no (0)
13                              ClCCN1CCOCC1            no (0)
14                              CC(C)C(=O)Cl            no (0)
15        CC(C)CC(C)(c1ccc(O)cc1)c1ccc(O)cc1           yes (1)
16  COc1cc(N)c(Cl)cc1C(=O)NC1CN2CCC1CC2 (stereo unspecified)            no (0)
17  Cc1cc(C)c(C2=C(OC(=O)CC(C)(C)C)C3(CCCC3)OC2=O)c(C)c1            no (0)
18          CC(C)CC(C)N (stereo unspecified)            no (0)
19  CCCCN(CCCC)C(=S)[S-].CCCCN(CCCC)C(=S)[S-].[Zn+2]           yes (1)
20  O=C1c2ccccc2C(=O)C1C(=O)C(c1ccccc1)c1ccc(Cl)cc1 (stereo unspecified)           yes (1)
21  CC(C)(O)c1cnn2c(-c3ccc(F)c(-c4c(F)cccc4C#N)c3)cnc2n1           yes (1)
22  CC1(c2ccc(Oc3ccccc3)cc2)OC(=O)N(Nc2ccccc2)C1=O (stereo unspecified)           yes (1)
23                CC(=O)/C=C/c1ccc2c(c1)OCO2           yes (1)
24  C[C@]12CC[C@H](O)C[C@H]1CC[C@@H]1[C@@H]2C[C@@H](O)[C@]2(C)[C@@H](C3=CC(=O)OC3)CC[C@]12O            no (0)
25                           NNC(=O)c1ccccc1           yes (1)
26                 CC(=O)c1ccc(-c2ccccc2)cc1            no (0)

* * *

test: qHTS assay to identify small molecule agonists of the estrogen receptor beta (ER-beta) signaling pathway - cell viability counter screen (AID 1259380); note: nearly all actives have a fitted effect of over 30% in size
condition notes: ER-beta-bla HEK293T viability, CellTiter-Glo luminescence, 16 h; series mostly up to 92.4 µM
Results filed as inconclusive are left out. Activity calls are given as the source filed them. Calls follow the shape of the dose curve; as a rule, active = well fitted cell-killing curve with a large enough effect in the repeat runs; inconclusive = weak or mixed curves, or effect the other way; inactive = flat fitted curve, though single readings scatter.
Labels: active, inactive

> print(dat)
                               smiles.input  class.assignment
1      CN(C)S(=O)(=O)N(SC(F)(Cl)Cl)c1ccccc1            active
2  C[C@]12CC[C@H](O)C[C@H]1CC[C@@H]1[C@@H]2C[C@@H](O)[C@]2(C)[C@@H](C3=CC(=O)OC3)CC[C@]12O            active
3                             C=CC(=O)N(C)C          inactive

* * *

test: qHTS assay to identify small molecule antagonists of the farnesoid-X-receptor (FXR) signaling pathway - cell viability counter screen (AID 743221); note: nearly all actives have a fitted effect of over 50% in size
condition notes: FXR-bla HEK293T viability, CellTiter-Glo luminescence, 16 h; series mostly up to 62.6 µM
Results filed as inconclusive are left out. Calls of active or inactive are those of the source. Calls follow the shape of the dose curve; as a rule, active = well fitted cell-killing curve with a large enough effect in the repeat runs (not every such curve was filed as active); inconclusive = weak or mixed curves, or effect the other way; inactive = no such curve, though single readings can be large or run the other way.
Possible outcomes: active, inactive

> print(dat)
                                    compound  class.assignment
 1  O=[N+]([O-])c1cc(C(F)(F)F)c(Cl)c([N+](=O)[O-])c1Cl            active
 2  O=c1[nH]c2ccccc2n1CCCN1CCC(n2c(=O)[nH]c3cc(Cl)ccc32)CC1          inactive
 3         O=S(=O)(c1ccc(Cl)cc1)c1ccc(Cl)cc1          inactive
 4    CC(C)CCCCCCCOP(=O)(Oc1ccccc1)Oc1ccccc1          inactive
 5      CN(C)S(=O)(=O)N(SC(F)(Cl)Cl)c1ccccc1            active
 6                                     BrCBr          inactive
 7  CC[C@H]1C[C@@H]2C[C@H]3c4[nH]c5ccc(OC)cc5c4CCN(C2)[C@@H]13          inactive
 8                CC(c1ccc(O)cc1)c1ccc(O)cc1          inactive
 9  CC(=O)O[C@H]1CC[C@@]2(C)C(=CC[C@@H]3[C@@H]2CC[C@]2(C)C(=O)CC[C@@H]32)C1          inactive
10           CCCCCCCCCCCCCCCCCCn1cc[n+](C)c1            active
11  CC(C)CCCCCOC(=O)c1ccccc1C(=O)OCCCCCC(C)C          inactive
12  CC(C)[C@H](C(=O)OC(C#N)c1cccc(Oc2ccccc2)c1)c1ccc(OC(F)F)cc1 (some centres undefined)          inactive
13    CC(C)Oc1cccc(NC(=O)c2ccccc2C(F)(F)F)c1          inactive
14  Clc1ccc(CSC(Cn2ccnc2)c2ccc(Cl)cc2Cl)cc1 (centres undefined)            active
15  ClC1=C(Cl)C2(Cl)C3C(Cl)C=CC3C1(Cl)C2(Cl)Cl (centres undefined)          inactive
16  CCCN(CC)CC1COC2(CCC(C(C)(C)C)CC2)O1 (centres undefined)          inactive
17                    O=C/C(Cl)=C(/Cl)C(=O)O          inactive
18                 Oc1ccc2ccc3cccc4ccc1c2c34          inactive
19                  c1ccc2c(c1)[nH]c1cnccc12          inactive
20  CCOc1cc(C(C)(C)C)ccc1C1COC(c2c(F)cccc2F)=N1 (centres undefined)            active
21  O=C1c2ccccc2C(=O)C1C(=O)C(c1ccccc1)c1ccc(Cl)cc1 (centres undefined)          inactive
22  CCOP(=S)(OCC)OC(Cl)C(Cl)(Cl)Cl (centres undefined)          inactive
23                          CC(C)OS(C)(=O)=O          inactive
24     c1ccc(OCC2CO2)cc1 (centres undefined)          inactive
25                        [Cl][Sb]([Cl])[Cl]          inactive
26               CCCN(CCC)CCc1c[nH]c2ccccc12          inactive
27      O=[N+]([O-])c1ccc2ccc3cccc4ccc1c2c34          inactive
28  CC(C)(C)c1ccc(CSc2cnn(C(C)(C)C)c(=O)c2Cl)cc1          inactive
29                        BrC(Br)C(Br)(Br)Br          inactive
